# study.target: DN-IV quality control recombinant protein (produced by the company) (dengue virus)
# assay.summary: BLI, antibody on AMC sensor
# strict inequality: Kd < 3 nM yields fulfilled, everything else yields not fulfilled

Could you please tell me whether Kd recorded for Mutation 1-12 (antibody, V domains shown) VH: EVQLQQPGPELVKPGASVKMSCKASGYTFTSTVIHWVRQKPGQGLEWIGYMNPYNDGIKYNEKFIGKAILTSDKSSSTAYMQLSSLTSEDSAVYYCTREGLFYVMDYWGQGTSVTVSS VL: QIVLTQSPAIMSASPGEKVTMTCSATSSISYMHWYQQKSGTSPKRWIYDTSKLASGVPVRFSGSGSGTSYSLTISSMEAEDAATYFCQYWRSDLPTFGAGTKLELKR is less than 3 nM? fulfilled

Could you please tell me whether Kd recorded for Mutation 1-18 (antibody, V domains shown) VH: EVQLQQPGPELVKPGASVKMSCKASGYTFTSTVIHWVRQKPGQGLEWIGYMNPYNDGLKYNEKFIGKAILTSDKSSSTAYMQLSSLTSEDSAVYYCTKEGLFYVFDYWGQGTSVTVSS VL: QIVLTQSPAIMSASPGEKVTMTCSATSSLSYMHWYQQKSGTSPKRWIYDSSKLASGVPVRFSGSGSGTSYSLTISSMEAEDAATYFCQYWRSDLPTFGAGTKLELKR is less than 3 nM? fulfilled

Could you please tell me whether Kd recorded for WT 1-11 (antibody, V domains shown) VH: EVQLQQPGPELVKPGASVKMSCKASGYTVTSTVIHWVRQKPGQGLEWIGYMNAYNDGIKYNDKFIGKAILTSDKSSSTAYMQLSSLTSEDSAVYYCTREGLFYVMDYWGQGTSVTVSS VL: QIVLTQSPAIMSASPGEKVTMTCSGTSSISYMHWYQQKSGTSPKRWIYDTSKLASPVPVRFSGSGSGTSYSLTISSMEAEDAATYFCQYWRSVLPTFGAGTKLELKR is less than 3 nM? not fulfilled

Could you please tell me whether Kd recorded for Mutation 1-5 (antibody, V domains shown) VH: EVQLQQPGPELVKPGASVKMSCKASGYTFTSYVIHWVRQKPGQGLEWIGYMNPYNDGIKYNEKFIGKAILTSDKSSSTAYMQLSSLTSEDSAVYYCTREGLFYVFDYWGQGTSVTVSS VL: QIVLTQSPAIMSASPGEKVTMTCSATSSVSYMHWYQQKSGTSPKRWIYDSSKLASGVPVRFSGSGSGTSYSLTISSMEAEDAATYFCQQWRSDLPTFGAGTKLELKR is less than 3 nM? fulfilled

Could you please tell me whether Kd recorded for Mutation 1-47 (antibody, V domains shown) VH: EVQLQQPGPELVKPGASVKMSCKASGYTFTSYVIHWVRQKPGQGLEWIGYMNPYNDGIKYNEKFIGKAILTSDKSSSTAYMQLSSLTSEDSAVYYCTREGLFYVFDYWGQGTSVTVSS VL: QIVLTQSPAIMSASPGEKVTMTCSATSSISYMHWYQQKSGTSPKRWIYDSSKLASGVPVRFSGSGSGTSYSLTISSMEAEDAATYFCQYWRSDLPTFGAGTKLELKR is less than 3 nM? fulfilled

Could you please tell me whether Kd recorded for Mutation 1 (antibody, V domains shown) VH: EVQLQQPGPELVKPGASVKMSCKASGYTFTSTVIHWVRQKPGQGLEWIGYMNPYNDGLKYNEKFIGKAILTSDKSSSTAYMQLSSLTSEDSAVYYCTKEGLFYVMDYWGQGTSVTVSS VL: QIVLTQSPAIMSASPGEKVTMTCSATSSISYMHWYQQKSGTSPKRWIYDTSKLASGVPVRFSGSGSGTSYSLTISSMEAEDAATYFCQQWRSDLPTFGAGTKLELKR is less than 3 nM? fulfilled

Could you please tell me whether Kd recorded for Mutation 1-26 (antibody, V domains shown) VH: EVQLQQPGPELVKPGASVKMSCKASGYTFTSYVIHWVRQKPGQGLEWIGYMNPYNDGIKYNEKFIGKAILTSDKSSSTAYMQLSSLTSEDSAVYYCTREGLFYVMDYWGQGTSVTVSS VL: QIVLTQSPAIMSASPGEKVTMTCSATSSLSYMHWYQQKSGTSPKRWIYDTSKLASGVPVRFSGSGSGTSYSLTISSMEAEDAATYFCQWWRSDLPTFGAGTKLELKR is less than 3 nM? not fulfilled

Could you please tell me whether Kd recorded for Mutation 1-19 (antibody, V domains shown) VH: EVQLQQPGPELVKPGASVKMSCKASGYTFTSSVIHWVRQKPGQGLEWIGYMNPYNDGIKYNEKFIGKAILTSDKSSSTAYMQLSSLTSEDSAVYYCTREGLFYVMDYWGQGTSVTVSS VL: QIVLTQSPAIMSASPGEKVTMTCSATSSVSYMHWYQQKSGTSPKRWIYDTSKLASGVPVRFSGSGSGTSYSLTISSMEAEDAATYFCQQWRSDLPTFGAGTKLELKR is less than 3 nM? fulfilled

Could you please tell me whether Kd recorded for Mutation 1-9 (antibody, V domains shown) VH: EVQLQQPGPELVKPGASVKMSCKASGYTFTSTVIHWVRQKPGQGLEWIGYMNPYNDGLKYNEKFIGKAILTSDKSSSTAYMQLSSLTSEDSAVYYCTREGLFYVFDYWGQGTSVTVSS VL: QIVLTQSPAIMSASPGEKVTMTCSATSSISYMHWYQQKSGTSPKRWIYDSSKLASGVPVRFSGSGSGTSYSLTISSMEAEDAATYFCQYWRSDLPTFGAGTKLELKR is less than 3 nM? fulfilled

Could you please tell me whether Kd recorded for Mutation 1-39 (antibody, V domains shown) VH: EVQLQQPGPELVKPGASVKMSCKASGYTFTSTVIHWVRQKPGQGLEWIGYMNPYNDGIKYNEKFIGKAILTSDKSSSTAYMQLSSLTSEDSAVYYCTREGLFYVFDYWGQGTSVTVSS VL: QIVLTQSPAIMSASPGEKVTMTCSATSSLSYMHWYQQKSGTSPKRWIYDSSKLASGVPVRFSGSGSGTSYSLTISSMEAEDAATYFCQQWRSDLPTFGAGTKLELKR is less than 3 nM? not fulfilled
